System Under Test: CAMK1G (1-320) (Homo sapiens)
Construct: made in house; host or cells: E. coli BL21 (DE3) pLysS
Sequence (Q96NX5 1-320): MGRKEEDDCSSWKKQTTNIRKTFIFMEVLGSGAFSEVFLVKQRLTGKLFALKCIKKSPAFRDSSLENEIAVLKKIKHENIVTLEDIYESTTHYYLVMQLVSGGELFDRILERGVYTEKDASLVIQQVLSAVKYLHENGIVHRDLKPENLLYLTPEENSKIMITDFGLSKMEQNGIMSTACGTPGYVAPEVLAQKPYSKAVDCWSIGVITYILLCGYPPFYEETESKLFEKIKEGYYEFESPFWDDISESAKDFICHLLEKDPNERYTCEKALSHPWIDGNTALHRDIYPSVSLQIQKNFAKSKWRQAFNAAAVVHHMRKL
Experiment Notes: STD-NMR fragment screening, CAMK1G
Format: binding
Conditions Used: 1 = hit, 0 = no hit
Measured Attribute: CAMK1G (STD-NMR hit flag)

// worked examples, CAMK1G (STD-NMR hit flag) included
# Smiles, CAMK1G (STD-NMR hit flag)
records = [
    ("Brc1nnc2n1CCNC2", 0),
    ("Brc1cnc(N2CCCNCC2)nc1", 1),
    ("Nc1nc(Cl)c(NC=O)c(Cl)n1", 0),
    ("O=C(O)c1cc(Cl)nnc1Cl", 0),
    ("O=C(O)c1cnccc1Br", 0),
    ("Cc1ccc(Cl)c(CN)c1F", 0),
    ("O=C(c1ccc(Br)cc1)C12CN3CN(CN(C3)C1)C2", 0),
]

P = COc1ncc(Cl)cc1C(=O)O
Q = O=C(c1cc(Br)c[nH]1)N1CCOCC1
*Q* API: POST /compare with P and Q ; response names the item with higher CAMK1G (STD-NMR hit flag). Your answer should be the label attached to the chosen record.
*A* Q
(Q: 1, P: 0)

Data provenance: paper PMC8847695
